# Tested on: SR
# protocol-description: NCI tumour cell line growth inhibition, 48 h
Counter-ions that a name gives are not always drawn. Active and inactive are the calls of the source. Rule as the data show it: active = GI50 up to about 1.1 µM and inactive = higher.
Your reply should match one of these outcome classes. active, inactive

Nc1nc(-c2ccco2)cc(-c2ccco2)n1
inactive

Outcome? CC(C)(N)C(=O)N[C@@H]1C(=O)N2[C@@H]1SC(C)(C)[C@@H]2C(=O)O
inactive

Outcome? CCN(CC)CCNc1ccc(CO)c2sc3ccccc3c(=O)c12 [HYCANTHONE MESYLATE]
inactive

Outcome? C=Cc1nc2c(Cl)ncnc2n1Cc1ccccc1
inactive

Outcome? Cc1cc(C)nc(NS(=O)(=O)c2ccc(Nc3c4ccccc4nc4c(C(=O)NCCCN(CCO)CCO)cccc34)cc2)n1
inactive

Outcome? COc1ccc(NC2C(=O)C3(C)CCC2C3(C)C)cc1 (stereo unspecified)
inactive

Outcome? Cc1oc2ccccc2c(=O)c1Cn1nnc2ccccc21
inactive

Outcome? O=C(NNC(=O)/C(=C/c1cccc([N+](=O)[O-])c1)NC(=O)c1ccccc1)Nc1ccc(Cl)cc1
inactive

Outcome? NC(=O)c1nnc2cc(F)ccc2c1N
inactive

Outcome? C[C@]12C=CC(=O)C=C1[C@@H](F)C[C@H]1[C@@H]3CC[C@](O)(C(=O)CO)[C@@]3(C)C[C@H](O)[C@@]12F
inactive

Outcome? CC(=O)O[C@H]1C[C@]2(C)C(CCC3O[C@@]32C)[C@@]2(CC(c3ccoc3)OC2O)[C@@H]1C (stereo partly specified)
inactive
